Each recorded value in this set is attributed to ChEMBL document CHEMBL1155540.

assay: Elimination half life in Wistar rat at 1 mg/kg, iv; format: ADME, organism-based; parameters: dose 1 mg/kg, route intravenous; settings: in vivo, read-out: beta t1/2 (converted)
experimental readout: half-life
Write the quantity with the unit trailing the number.

Incoming: Query (compound): COc1ccc(S(=O)(=O)N2C[C@H](C(=O)N3CCCNCC3)c3ccccc32)c2ccccc12 ; field requested: half-life
Outgoing: 1.9 h

----------
species on record: Homo sapiens; assay: Plasma protein binding in human; conditions: read-out: PPB (converted)
experimental readout: fraction unbound
One number for each entry.

Incoming: Look at this compound and give its reported fraction unbound. COc1ccc(S(=O)(=O)N2C[C@H](C(=O)N3CCCNCC3)c3ccccc32)c2ccccc12
Outgoing: 0.006

----------
assay: Oral bioavailability in Wistar rat at 10 mg/kg; format: ADME, organism-based; settings: in vivo
experimental readout: bioavailability
Answer format reminder: number followed by unit.

Incoming: Look up bioavailability for this compound: COc1ccc(S(=O)(=O)N2C[C@H](C(=O)N3CCCNCC3)c3ccccc32)c2ccccc12
Outgoing: 23.5%

----------
assay: Clearance in Wistar rat at 1 mg/kg, iv; format: ADME, organism-based; parameters: dose 1 mg/kg, route intravenous; details: in vivo
experimental readout: clearance (mL/min/kg)
Numbers only, in mL/min/kg.

Incoming: What does the data say about its clearance? Entry: COc1ccc(S(=O)(=O)N2C[C@H](C(=O)N3CCCNCC3)c3ccccc32)c2ccccc12
Outgoing: 16.5

----------
assay: Plasma protein binding in rat; details: read-out: PPB (converted)
experimental readout: fraction unbound
One number for each entry.

Incoming: Which fraction unbound reading was recorded for the compound COc1ccc(S(=O)(=O)N2C[C@H](C(=O)N3CCCNCC3)c3ccccc32)c2ccccc12 ?
Outgoing: 0.029

----------
assay: Volume of distribution at steady state in Wistar rat at 1 mg/kg, iv; format: ADME, organism-based; set-up: dose 1 mg/kg, route intravenous; conditions: in vivo, read-out: Vdss
experimental readout: Vd (L/kg)
Give bare numbers, in L/kg.

Incoming: Give the measured Vd of COc1ccc(S(=O)(=O)N2C[C@H](C(=O)N3CCCNCC3)c3ccccc32)c2ccccc12 .
Outgoing: 1.9

----------
test: Intrinsic clearance in human liver microsome measured per mg of protein; format: ADME; settings: liver microsomes
experimental readout: microsomal CLint (µL/min/mg)
Numbers only, in µL/min/mg.

Incoming: Consider the compound shown here: COc1ccc(S(=O)(=O)N2C[C@H](C(=O)N3CCCNCC3)c3ccccc32)c2ccccc12 What is its recorded microsomal CLint?
Outgoing: 69

----------
// Ki collected for UniProt P50406
Sequence (P50406 whole entry): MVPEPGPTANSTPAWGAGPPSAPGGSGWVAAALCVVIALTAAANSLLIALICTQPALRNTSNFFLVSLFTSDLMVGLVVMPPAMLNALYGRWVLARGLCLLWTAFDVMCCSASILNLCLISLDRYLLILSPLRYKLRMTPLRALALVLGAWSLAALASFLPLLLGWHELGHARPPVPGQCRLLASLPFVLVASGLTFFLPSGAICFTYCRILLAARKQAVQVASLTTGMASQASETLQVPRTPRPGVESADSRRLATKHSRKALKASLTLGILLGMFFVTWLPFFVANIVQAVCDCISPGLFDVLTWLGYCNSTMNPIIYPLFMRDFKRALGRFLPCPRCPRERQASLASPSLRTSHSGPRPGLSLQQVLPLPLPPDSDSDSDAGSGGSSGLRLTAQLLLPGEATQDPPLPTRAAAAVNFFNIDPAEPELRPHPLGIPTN
Give bare numbers, in µM.

Illustrative cases are given below, each with its answer.
molecule: COc1ccc(S(=O)(=O)N2CC(C(=O)NC3CCN(Cc4ccccc4)CC3)c3ccccc32)c2ccccc12 (racemic)
experimental readout: Ki
number: 0.0501

molecule: CCN(CC)CCNC(=O)C1CN(S(=O)(=O)c2ccc(OC)c3ccccc23)c2ccccc21 (racemic)
experimental readout: Ki
number: 0.02

molecule: COc1ccc(S(=O)(=O)N2CC(C(=O)NC3CCN(C)CC3)c3ccccc32)c2ccccc12 (racemic)
experimental readout: Ki
number: 0.0251

molecule: COc1ccc(S(=O)(=O)N2CC(C(=O)N(C)C3CCN(C)CC3)c3ccccc32)c2ccccc12 (racemic)
experimental readout: Ki
number: 0.00794

Batch of 2 molecules: report Ki for each.
1. COc1ccc(S(=O)(=O)N2CC(C(=O)NCCCn3ccnc3)c3ccccc32)c2ccccc12 (racemic)
2. CN1CCC(N(C)C(=O)C2CN(S(=O)(=O)c3ccc4ccccc4c3)c3ccccc32)CC1 (racemic)

Outgoing:
1: 0.0794; 2: 0.0251
